# credit: the supplement of paper PMC10126150

Test system: ATP;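 also: ATP exposure 15 min at 22 °C before imaging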
Assay: switch fluorescence ratio, 500 uM ATP over buffer (Cy3 cluster intensity, sum of 5 cycles each) (fold (ratio)); higher = stronger signal-on switching upon ATP binding; sequences stand for … in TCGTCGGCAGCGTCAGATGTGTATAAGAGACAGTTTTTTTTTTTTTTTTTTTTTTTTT…TC
Conditions: aptamer strand: ATP DNA aptamer (quencher-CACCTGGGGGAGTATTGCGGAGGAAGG + anchor), 100 nM annealed; ATP concentration: 500 uM
READOUT: switch fluorescence ratio
Lab note: jot the number down without any unit.

CHAIN_SEQUENCE | TARGET_SYSTEM | switch fluorescence ratio
ATTATTGCGT | ATP | 1.03

What value of measured switch fluorescence ratio is listed for `TCTATCAGGG` ?
0.995

Query `TTTTTATACG` next
0.984

And then `AGGTAAACGT` , what is it?
1.05

Subsequent entry: `CTGGAGTCTG`
1.11

Note, next up: `CACGTAAACG`
1.04

Another: `AGCAAACTTG`
1.04

Same again, this time with `TCAGGGGGCT`
1.03

Another sequence to look at: `TGCTATTGTG`
0.959

Another: `TATTTTTATC`
1.03
